Target: UniProtKB Q9H7B4
Test: SMYD3 biochemical assay (SMYD3 enzyme assay on MEKK2 protein substrate, scintillation proximity assay)
Details: 3H-SAM, SPA, IC50 values are an average of n = 1 to n = 50, read-out: SMYD3 Biochem IC50
From the text: S-adenosylmethionine (SAM), S-adenosylhomocysteine (SAH), Tris, Tween20, dimethylsulfoxide (DMSO), bovine skin gelatin (BSG), and Tris(2-carboxyethyl)phosphine hydrochloride solution (TCEP) were purchased from Sigma-Aldrich at the highest level of purity possible. ^3H-SAM was purchase from American Radiolabeled Chemicals with a specific activity of 80 Ci/mmol. 384-well opaque white OptiPlates and SPA beads (Perkin Elmer, catalog # RPNQ0013) were purchased from PerkinElmer. […]
# IC50 values compiled below
Your answer should be a plain number; it is taken to be in µM.

>>> df
                                 cpd_smiles  assay_readout  unit_name  recorded_measurement
0  N[C@H]1C[C@H](C(=O)N[C@H]2CC[C@H](NC(=O)c3cc(C4CC4)on3)CC2)C1           IC50         µM                 0.269
1  C[C@@H](N)CC(=O)N[C@H]1CC[C@H](N(C)C(=O)c2cc(C3CC3)on2)CC1           IC50         µM                  9.28
2  COCCN(C(=O)c1cc(C2CC2)on1)[C@H]1CC[C@H](NC(=O)C[C@H](C)N)CC1           IC50         µM                    19
3  C[C@@H](N)CC(=O)N[C@H]1CC[C@H](N(Cc2ccccc2)C(=O)c2cc(C3CC3)on2)CC1           IC50         µM                  8.22
4  N[C@H]1CC[C@H](C(=O)N[C@H]2CC[C@H](NC(=O)c3cc(C4CC4)on3)CC2)CC1           IC50         µM                 0.606
5  NCCS(=O)(=O)N[C@H]1CC[C@H](NC(=O)c2cc(C3CC3)on2)CC1           IC50         µM                   2.9
6  NCCCN(C(=O)CCO)[C@H]1CC[C@H](NC(=O)c2cc(C3CC3)on2)CC1           IC50         µM                  7.03

Request: Provide IC50, tested on UniProtKB Q9H7B4, for `N[C@H]1CC[C@H](C(=O)N[C@H]2CC[C@H](NC(=O)c3cc(C4CC4)on3)CC2)C1` .
Result: 0.562

* * *

target: SMYD3 (Homo sapiens (Human), UniProt Q9H7B4); assay: SMYD3 cell assay (Trimethyl-MEKK2 In-Cell Western in 293T/17 cells); assay type: cell-based; settings: 293T/17 cells transfected with MEKK2-flag and SMYD3, trimethyl-MEKK2 In-Cell Western, 24 hours, top concentration 40 μM; average of n = 1 to n = 50
Sequence (Q9H7B4 whole entry): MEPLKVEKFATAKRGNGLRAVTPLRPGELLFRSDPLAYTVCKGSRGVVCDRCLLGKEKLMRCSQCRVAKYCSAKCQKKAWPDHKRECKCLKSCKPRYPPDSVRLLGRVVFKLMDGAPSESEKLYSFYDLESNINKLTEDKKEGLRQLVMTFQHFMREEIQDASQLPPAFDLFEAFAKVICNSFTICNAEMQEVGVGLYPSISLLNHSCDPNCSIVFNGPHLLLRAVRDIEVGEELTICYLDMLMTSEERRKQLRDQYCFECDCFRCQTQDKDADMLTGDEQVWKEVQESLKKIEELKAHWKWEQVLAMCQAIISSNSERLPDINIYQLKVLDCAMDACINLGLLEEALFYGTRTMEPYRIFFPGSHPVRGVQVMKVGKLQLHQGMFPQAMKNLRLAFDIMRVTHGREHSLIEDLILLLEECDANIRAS
# pIC50 annotations
Please express pIC50 as -log10 of the molar concentration.

                                   compound  recorded_measurement
0  O=C(CCN1CCCC1)N[C@H]1CC[C@H](NC(=O)c2cc(C3CC3)on2)CC1                  5.71
1  C[C@@H](N)CC(=O)N[C@H]1CC[C@H](NC(=O)c2cc(C3CC3)on2)CC1                  5.00
2  CCc1cc(C(=O)N[C@H]2CC[C@H](NC(=O)C[C@@H](C)N)C[C@H]2CC)no1 (mixture of isomers)                  6.02
3  N[C@H]1CC[C@H](C(=O)N[C@H]2CC[C@H](NC(=O)c3cc(C4CC4)on3)CC2)C1                  5.29

Request: Using known records, supply pIC50 for C[C@@H](N)CC(=O)N[C@H]1CC[C@H](NC(=O)c2cc(C3CC3)on2)[C@H](Cc2ccccc2)C1 (mixture of isomers)
Result: 6.59

* * *

molecular target: SMYD3 (Homo sapiens (Human), UniProt Q9H7B4); test: SMYD3 biochemical assay (SMYD3 enzyme assay on MEKK2 protein substrate, scintillation proximity assay); settings: 3H-SAM, SPA, IC50 values are an average of n = 1 to n = 50, read-out: SMYD3 Biochem IC50
assay readout: pIC50
// pIC50: -log10(molar conc.)

In [3]: df
Out[3]:
                                   compound  assay_readout  recorded_measurement
0  C[C@H](N)CC(=O)N[C@H]1CC[C@H](N(CCc2ccccc2)C(=O)c2cc(C3CC3)on2)CC1 [compound 54]          pIC50                  4.94
1  O=C(CCNCc1ccccc1)N[C@H]1CC[C@H](NC(=O)c2cc(C3CC3)on2)CC1 [compound 18]          pIC50                  6.17
2  CC(C)CN(C(=O)c1cc(C2CC2)on1)[C@H]1CC[C@H](NC(=O)CCN)CC1 [compound 43]          pIC50                  5.35
3  CCc1cc(C(=O)N[C@H]2CC[C@H](N)C[C@H]2CC)no1 [compound 2]          pIC50                  5.61
4  C[C@@H](N)CC(=O)N[C@H]1CC[C@H](N(CCc2ccccc2)C(=O)c2cc(C3CC3)on2)CC1 [compound 41]          pIC50                  5.24
5  CC(C)CN(C(=O)c1cc(C2CC2)on1)[C@H]1CC[C@H](NC(=O)C[C@@H](C)N)CC1 [compound 47]          pIC50                  5.51

Request: Query pIC50 for NCCC(=O)N(CCN)[C@H]1CC[C@H](NC(=O)c2cc(C3CC3)on2)CC1 [compound 35]
Result: 6.05

Request: Identify measured pIC50 associated with NCCC(=O)N[C@H]1CC[C@H](N(CCc2ccccc2)C(=O)c2cc(C3CC3)on2)CC1 [compound 42]
Result: 4.97

Request: Give me measured pIC50, please, for this compound: NCCCN[C@H]1CC[C@H](NC(=O)c2cc(C3CC3)on2)CC1 [compound 23]
Result: 6.47

Request: Identify measured pIC50 associated with O=C(CCN1CCCC1)N[C@H]1CC[C@H](NC(=O)c2cc(C3CC3)on2)CC1 [compound 11]
Result: 6.73

Request: Fill in reported pIC50 for this entry: NCCC(=O)N(CCO)[C@H]1CC[C@H](NC(=O)c2cc(C3CC3)on2)CC1 [compound 9]
Result: 5.64

* * *

biological target: SMYD3 (Homo sapiens (Human)); test: SMYD3 biochemical assay (SMYD3 enzyme assay on MEKK2 protein substrate, scintillation proximity assay); details: 3H-SAM, SPA, IC50 values are an average of n = 1 to n = 50, read-out: SMYD3 Biochem IC50
assay readout: pIC50
Expect pIC50 as a plain number equal to -log10 of the molar concentration.

                                   molecule            measurement_target  recorded_measurement
0  C[C@H](N)CC(=O)N[C@H]1CC[C@@H](N(C)C(=O)c2cc(C3CC3)on2)CC1 [compound 57]  SMYD3 (Homo sapiens (Human))                  4.59
1  CC(N)CC(=O)N[C@H]1CC[C@H](NC(=O)c2cc(C3CC3)on2)CC1 (stereo partly shown) [compound 1]  SMYD3 (Homo sapiens (Human))                  6.33

Request: For the molecule C[C@@H](N)CC(=O)N[C@H]1CC[C@H](NC(=O)c2cc(C3CC3)on2)[C@H](Cc2ccccc2)C1 (mixture of isomers) [Cpd. No. 39] , report pIC50.
Result: 7.54

Request: Complete the entry with pIC50 for CC(CN)C(=O)N[C@H]1CC[C@H](NC(=O)c2cc(C3CC3)on2)CC1 (stereo partly shown) [compound 8]
Result: 6.18

* * *

molecular target: UniProt Q9H7B4; experiment: SMYD3 biochemical assay (SMYD3 enzyme assay on MEKK2 protein substrate, scintillation proximity assay); conditions: 3H-SAM, SPA, IC50 values are an average of n = 1 to n = 50, read-out: SMYD3 Biochem IC50
assay readout: IC50 (nM)
Number only, in nM; omit the unit.

Some compounds with recorded IC50:
In [3]: df
Out[3]:
                                 cpd_smiles  unit_name  recorded_measurement
0  CN(C(=O)c1cc(C2CC2)on1)[C@H]1CC[C@H](NC(=O)CCN)CC1         nM                  5290
1  CC(C)CCN[C@H]1CC[C@H](NC(=O)c2cc(C3CC3)on2)CC1         nM                  8230
2  N[C@H]1C[C@@H](C(=O)N[C@H]2CC[C@H](NC(=O)c3cc(C4CC4)on3)CC2)C1         nM                  1180
3  NCCC(=O)N[C@H]1CC[C@H](N(CCO)C(=O)c2cc(C3CC3)on2)CC1         nM                 16800

Request: Report IC50, nothing else, for this compound: `CN1CCN(CCC(=O)N[C@H]2CC[C@H](NC(=O)c3cc(C4CC4)on3)CC2)CC1`
Result: 7720

Request: Look up IC50 of `NCCCN(C(=O)CCN)[C@H]1CC[C@H](NC(=O)c2cc(C3CC3)on2)CC1` and report it.
Result: 428

Request: Hello, please tell me recorded IC50 for this one: `NCCC(=O)N[C@H]1CC[C@H](NC(=O)c2cc(C3CC3)on2)CC1`
Result: 475

Request: Supply recorded IC50 for `CC(C)CN(C(=O)c1cc(C2CC2)on1)[C@H]1CC[C@H](NC(=O)C[C@H](C)N)CC1` here.
Result: 3800

Request: State, in one line, measured IC50 of `O=C(CCN1CCNCC1)N[C@H]1CC[C@H](NC(=O)c2cc(C3CC3)on2)CC1`
Result: 1150

Request: Answer with the recorded IC50 of `CC(C)CNCCC(=O)N[C@H]1CC[C@H](NC(=O)c2cc(C3CC3)on2)CC1` only.
Result: 919
